- ASSAY_DETAILS: Biodistribution in PC-3 tumor-bearing CB17-SCID mice
- Type: in vivo
- CONDITIONS_USED: mouse, heart, intravenous, 100 pmol, ^177Lu-labeled; 24 h p.i.; 100 pmol; n = 4; read-out: Uptake in Heart
Starred links: 1 amine or outer side, 2 acyl side, 3 side chain; linkers in the order of their positions; H or OH if unused. Non-standard residues stand in square brackets, D forms with d. Residues, ends and D or L forms follow the SMILES beside them. *: point of attachment. DOTA = O=C(O)CN1CCN(CC(=O)O)CCN(CC(=O)*)CCN(CC(=O)O)CC1; Sta = CC(C)C[C@H](N)[C@@H](O)CC(=O)O; Bta = N[C@@H](Cc1csc2ccccc12)C(=O)O; X1 = O=C(CN1CCC(N[*:1])CC1)[*:2]; hSer = N[C@@H](CCO)C(=O)O
MEASUREMENT_TYPE: tissue uptake at 24 h (%ID/g)
Form entry: value (%ID/g) — number only.

1) CC(C)C[C@H](NC(=O)C[C@H](O)[C@H](CC(C)C)NC(=O)[C@H](Cc1c[nH]cn1)NC(=O)CNC(=O)[C@@H](NC(=O)[C@H](C)NC(=O)[C@H](Cc1c[nH]c2ccccc12)NC(=O)[C@H](CCO)NC(=O)[C@@H](Cc1ccccc1)NC(=O)CN1CCC(NC(=O)CN2CCN(CC(=O)O)CCN(CC(=O)O)CCN(CC(=O)O)CC2)CC1)C(C)C)C(N)=O [[^177Lu]Lu-[Hse^7]RM2, metal not drawn] ({DOTA}-[X1][dF][hSer]WAVGH[Sta]L-NH2) :: 0.11

CC(C)C[C@H](NC(=O)C[C@H](O)[C@H](CC(C)C)NC(=O)[C@H](Cc1c[nH]cn1)NC(=O)CNC(=O)[C@@H](NC(=O)[C@H](C)NC(=O)[C@H](Cc1csc2ccccc12)NC(=O)[C@H](CCC(N)=O)NC(=O)[C@@H](Cc1ccccc1)NC(=O)CN1CCC(NC(=O)CN2CCN(CC(=O)O)CCN(CC(=O)O)CCN(CC(=O)O)CC2)CC1)C(C)C)C(N)=O [[^177Lu]Lu-[Bta^8]RM2, metal not drawn] ({DOTA}-[X1][dF]Q[Bta]AVGH[Sta]L-NH2) yielded tissue uptake at 24 h of 0.09

###

Overview of recorded tissue to tissue ratio at 1 h for various compounds
- ASSAY_DETAILS: Biodistribution in PC-3 tumor-bearing CB17-SCID mice
- Format: in vivo
- CONDITIONS_USED: CB17-SCID, mouse, tumor and lung, iv, 100 pmol, total radioactivity; ^68Ga-labeled; 1 h p.i.; n = 4; read-out: Tumor-to-Lung ratio
Starred links: 1 amine or outer side, 2 acyl side, 3 side chain; linkers in the order of their positions; H or OH if unused. Non-standard residues stand in square brackets, D forms with d. Residues, ends and D or L forms follow the SMILES beside them. *: point of attachment. DOTA = O=C(O)CN1CCN(CC(=O)O)CCN(CC(=O)*)CCN(CC(=O)O)CC1; Sta = CC(C)C[C@H](N)[C@@H](O)CC(=O)O; Bta = N[C@@H](Cc1csc2ccccc12)C(=O)O; X1 = O=C(CN1CCC(N[*:1])CC1)[*:2]; hSer = N[C@@H](CCO)C(=O)O
Please respond with just the number, no unit label.

1. CC(C)C[C@H](NC(=O)C[C@H](O)[C@H](CC(C)C)NC(=O)[C@H](Cc1c[nH]cn1)NC(=O)CNC(=O)[C@@H](NC(=O)[C@H](C)NC(=O)[C@H](Cc1c[nH]c2ccccc12)NC(=O)[C@H](CCO)NC(=O)[C@@H](Cc1ccccc1)NC(=O)CN1CCC(NC(=O)CN2CCN(CC(=O)O)CCN(CC(=O)O)CCN(CC(=O)O)CC2)CC1)C(C)C)C(N)=O [[^68Ga]Ga-[Hse^7]RM2, metal not drawn] ({DOTA}-[X1][dF][hSer]WAVGH[Sta]L-NH2) :: 3.3

Proceed to the following item.
CC(C)C[C@H](NC(=O)C[C@H](O)[C@H](CC(C)C)NC(=O)[C@H](Cc1c[nH]cn1)NC(=O)CNC(=O)[C@@H](NC(=O)[C@H](C)NC(=O)[C@H](Cc1csc2ccccc12)NC(=O)[C@H](CCC(N)=O)NC(=O)[C@@H](Cc1ccccc1)NC(=O)CN1CCC(NC(=O)CN2CCN(CC(=O)O)CCN(CC(=O)O)CCN(CC(=O)O)CC2)CC1)C(C)C)C(N)=O [[^68Ga]Ga-[Bta^8]RM2, metal not drawn] ({DOTA}-[X1][dF]Q[Bta]AVGH[Sta]L-NH2) yielded tissue to tissue ratio at 1 h of 8.8
